biological target: Bifunctional dihydrofolate reductase-thymidylate synthase (Toxoplasma gondii, UniProt Q07422); test: Inhibition of Toxoplasma gondii TS-DHFR using methylenetetrahydrofolate/dUMP as sustrate preincubated for 10 mins followed by substrate addition
Sequence (Q07422 whole entry): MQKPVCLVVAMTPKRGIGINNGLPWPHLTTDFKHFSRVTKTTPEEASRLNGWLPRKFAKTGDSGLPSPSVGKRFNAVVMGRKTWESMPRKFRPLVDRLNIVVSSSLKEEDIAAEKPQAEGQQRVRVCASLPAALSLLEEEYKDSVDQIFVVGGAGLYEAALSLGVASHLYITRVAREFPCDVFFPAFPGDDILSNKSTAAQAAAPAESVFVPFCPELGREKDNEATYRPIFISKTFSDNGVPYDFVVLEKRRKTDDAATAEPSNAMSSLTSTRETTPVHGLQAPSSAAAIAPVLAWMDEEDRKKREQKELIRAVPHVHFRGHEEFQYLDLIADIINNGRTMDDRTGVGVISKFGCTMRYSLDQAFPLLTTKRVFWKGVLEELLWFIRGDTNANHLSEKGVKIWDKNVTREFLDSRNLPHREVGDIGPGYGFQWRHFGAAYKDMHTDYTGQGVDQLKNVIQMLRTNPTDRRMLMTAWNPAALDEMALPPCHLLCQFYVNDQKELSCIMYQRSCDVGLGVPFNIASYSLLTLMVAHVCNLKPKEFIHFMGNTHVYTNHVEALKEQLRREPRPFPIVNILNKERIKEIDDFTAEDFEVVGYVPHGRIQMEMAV
quantityName: IC50 (µM)

COC(=O)Nc1nc2cc(-c3nnc(O)c4ccccc34)ccc2[nH]1 = 51
O=C(Nc1ccccc1)OCc1ccc(-c2cc(C(F)(F)F)cc(C(F)(F)F)c2)o1 = 54
